Target: C5aR (Homo sapiens, UniProt P21730)
Construct: U937 cells are a monocytic cell line which express C5aR
Sequence (P21730 1-350): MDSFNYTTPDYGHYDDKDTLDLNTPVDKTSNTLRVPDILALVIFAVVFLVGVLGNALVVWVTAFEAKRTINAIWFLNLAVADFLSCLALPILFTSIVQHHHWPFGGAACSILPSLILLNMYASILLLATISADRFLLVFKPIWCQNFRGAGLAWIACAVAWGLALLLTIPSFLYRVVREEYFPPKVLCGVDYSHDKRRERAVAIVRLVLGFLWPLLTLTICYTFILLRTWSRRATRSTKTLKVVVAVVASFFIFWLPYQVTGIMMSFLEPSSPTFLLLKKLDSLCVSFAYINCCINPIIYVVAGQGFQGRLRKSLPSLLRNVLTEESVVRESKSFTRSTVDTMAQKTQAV
Test: chemotaxis assay (C5aR mediated migration)
Conditions: migration of U937 or neutrophil cells toward C5a (0.03 nM), 1.5 hours at 37° C., read-out: Mig IC50
Method: U937 cells are a monocytic cell line which express C5aR, and are available from ATCC (VA). […] Optionally, compounds may be further assayed for their ability to inhibit chemotaxis in cells. […] The chambers are incubated 1.5 hours at 37° C., and the number of cells in the lower chamber quantified either by direct cell counts in five high powered fields per well or by the CyQuant assay (Molecular Probes), a fluorescent dye method that measures nucleic acid content and microscopic observation.
pIC50: −log10 of the molar value.
outcomeMeasure: pIC50

Examples from the recorded data:
>>> observed("Cc1cccc(OCC(C)C)c1-n1nc2c(c1-c1ccc3[nH]ccc3c1)CN(C(C)c1ccccc1C(F)(F)F)CC2 (stereo not shown)")
"> 8.30"
>>> observed("CCc1cccc(CC)c1-n1nc2c(c1-c1cnc3[nH]ccc3c1)CN(c1ncc(C(F)(F)F)cn1)CC2")
"< 6.30"
>>> observed("Cc1cccc(C)c1-n1nc2c(c1-c1ccc(Cl)c3[nH]ccc13)CN(c1ncc(Cl)cn1)CC2")
"7.30 to 8.30"
>>> observed("CCOc1c(F)cc(-c2c3c(nn2-c2c(CC)cccc2CC)CCN(c2ncc(C(F)(F)F)cn2)C3)c2cc[nH]c12")
"> 8.30"
>>> observed("CCc1cccc(CC)c1-n1nc2c(c1-c1ccc(Cl)c3[nH]ccc13)CN(c1ncc(F)cn1)CC2")
"> 8.30"

Enquiry: Entry `CCc1cccc(CC)c1-n1nc2c(c1-c1cc(F)c(C)c3[nH]ccc13)CN(c1ncc(C(F)(F)F)cc1F)CC2` has what pIC50?
Return: > 8.30

Enquiry: Request: `CCc1cccc(CC)c1-n1nc2c(c1-c1ccc(OC)c3[nH]ncc13)CN(c1ncc(C(F)(F)F)cn1)CC2`
Return: > 8.30
